# assay system: T1, recombinant human GREM1 (hGREM1-His; C-terminal 10His tagged, R&D, #5190-GR) (human, UniProt O60565 25-184)
# T1 construct: range 25-184; also called recombinant human GREM1 with a C-terminal decahistidine tag
# T1 sequence: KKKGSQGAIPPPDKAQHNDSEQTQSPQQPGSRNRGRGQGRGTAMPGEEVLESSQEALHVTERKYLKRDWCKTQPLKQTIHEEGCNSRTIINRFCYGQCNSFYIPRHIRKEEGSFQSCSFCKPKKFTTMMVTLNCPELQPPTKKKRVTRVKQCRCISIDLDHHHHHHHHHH
# method summary: BLI Octet, mAb captured, 100 nM GREM1 + 5 uM heparin;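 also: octet Red96 biolayer interferometry at 25 °C, antibodies captured on anti-human IgG Fc biosensors, pH 7.4 HEPES buffer with 0.1 mg/mL BSA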
readout label: Binding Signal with 30 sec Association (nm)
Give a bare numeral; the unit nm is implied.

Input line: Please give the measured Binding Signal with 30 sec Association for this binder: H4H6260P (antibody, human IgG4, V domains shown, H4H prefix = human IgG4 Fc) VH: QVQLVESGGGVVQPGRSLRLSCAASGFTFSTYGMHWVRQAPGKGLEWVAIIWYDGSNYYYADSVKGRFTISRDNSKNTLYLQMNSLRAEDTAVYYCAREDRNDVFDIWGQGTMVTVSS VL: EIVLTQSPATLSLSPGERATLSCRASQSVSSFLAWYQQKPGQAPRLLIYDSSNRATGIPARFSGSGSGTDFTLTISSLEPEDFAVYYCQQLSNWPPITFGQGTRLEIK
Output line: 0.07

Input line: Now give it for H4H6269P (antibody, human IgG4, V domains shown, H4H prefix = human IgG4 Fc) VH: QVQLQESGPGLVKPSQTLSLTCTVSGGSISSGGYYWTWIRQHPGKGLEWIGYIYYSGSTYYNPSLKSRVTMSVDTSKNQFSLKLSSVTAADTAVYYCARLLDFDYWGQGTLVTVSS VL: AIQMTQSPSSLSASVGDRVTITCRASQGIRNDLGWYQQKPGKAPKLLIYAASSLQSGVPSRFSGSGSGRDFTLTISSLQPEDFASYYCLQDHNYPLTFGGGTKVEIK too.
Output line: 0.14

Input line: Now give it for H4H6245P (antibody, human IgG4, V domains shown, H4H prefix = human IgG4 Fc) VH: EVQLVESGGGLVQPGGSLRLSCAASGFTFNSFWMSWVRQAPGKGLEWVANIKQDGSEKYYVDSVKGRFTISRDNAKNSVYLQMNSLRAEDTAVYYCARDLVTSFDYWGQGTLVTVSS VL: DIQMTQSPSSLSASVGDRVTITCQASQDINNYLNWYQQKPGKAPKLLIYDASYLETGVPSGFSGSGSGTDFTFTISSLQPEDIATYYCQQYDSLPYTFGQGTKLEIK too.
Output line: 0.02

Input line: Now give it for H4H6240P (antibody, human IgG4, V domains shown, H4H prefix = human IgG4 Fc) VH: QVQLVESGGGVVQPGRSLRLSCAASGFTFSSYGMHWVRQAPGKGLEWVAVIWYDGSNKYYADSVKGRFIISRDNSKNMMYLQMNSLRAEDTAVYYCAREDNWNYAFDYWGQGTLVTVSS VL: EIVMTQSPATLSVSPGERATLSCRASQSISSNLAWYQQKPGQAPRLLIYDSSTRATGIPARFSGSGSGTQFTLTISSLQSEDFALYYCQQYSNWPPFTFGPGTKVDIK too.
Output line: 0.05

Input line: Now give it for H4H6243P (antibody, human IgG4, V domains shown, H4H prefix = human IgG4 Fc) VH: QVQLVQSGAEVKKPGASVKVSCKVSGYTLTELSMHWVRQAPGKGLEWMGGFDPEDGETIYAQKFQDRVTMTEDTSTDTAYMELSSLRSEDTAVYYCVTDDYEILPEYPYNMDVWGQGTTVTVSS VL: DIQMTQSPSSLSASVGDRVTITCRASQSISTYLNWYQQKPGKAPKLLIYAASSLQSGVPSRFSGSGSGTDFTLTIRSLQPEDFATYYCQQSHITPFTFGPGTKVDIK too.
Output line: 0
